pIC50: −log10 of the molar value.
Consider the following pIC50 values measured on UniProtKB P80276.
measuredMetric: pIC50

1) CCCCN(Cc1nc2c(F)c(F)cc(F)c2s1)C(=O)CCC(=O)O    7.74
2) O=C(O)CCC(=O)N(Cc1nc2c(F)c(F)cc(F)c2s1)C1CC1    7.77

(A) CN(Cc1nc2c(F)c(F)cc(F)c2s1)C(=O)CCC(=O)O
(B) CC(/C=C1\SC(=S)N(CC(=O)O)C1=O)=C\c1ccccc1 [EPALRESTAT, reference compound]
pIC50 comparison. Which is larger, A or B ? Selection: enter the item's label.
A
